Assay: Lipophilicity, logD of the compound in Octanol/phosphate buffer at pH 7.4 after 30 mins by shake-flask method
Assay type: physicochemical
metric: logD at 0.5 h

1 = O=C(Nc1ccccc1)c1cnc(NCc2c(F)ccc3c2CCO3)n2cnnc12
2 = O=C(Nc1cnc(NCc2c(F)ccc3c2CCO3)n2cnnc12)c1cccnc1
// query // max by logD at 0.5 h over [ 1 , 2 ] Reply briefly: the label of your chosen item.
// result 1

###

Assay: Intrinsic clearance in human liver microsomes at 1 uM preincubated with NADPH for 5 mins followed by compound addition and measured upto 30 mins by LC-MS/MS analysis
Format: ADME, Microsome
Conditions: read-out: CLH
metric: microsomal CLint at 1 µM (µL/min/mg)

Guide cases for microsomal CLint at 1 µM, answers given:
Cc1nn(C)cc1-c1cnc(NCc2c(F)ccc3c2CCO3)c2cn[nH]c(=O)c12 27
CN(c1ccn(C)n1)c1cnc(NCc2c(F)ccc3c2CCO3)c2cn[nH]c(=O)c12 62
O=C1c2ccccc2CN1c1cnc(NCc2c(F)ccc3c2CCO3)n2cnnc12 13

I = Cn1nccc1-c1cnc(NCc2c(F)ccc3c2CCO3)c2cn[nH]c(=O)c12
II = Cc1ncccc1-c1cnc(NCc2c(F)ccc3c2CCO3)c2ncc(=O)[nH]c12
III = CN(c1cn(C)cn1)c1cnc(NCc2c(F)ccc3c2CCO3)n2cnnc12
IV = Cc1ncccc1-c1cnc(NCc2c(F)ccc3c2CCO3)n2c(=O)[nH]nc12
V = CN(c1cccnc1)c1cnc(NCc2c(F)ccc3c2CCO3)n2cnnc12
// query Your job: order these 5 records by microsomal CLint at 1 µM, ascending. Please, when replying, give the labels in the order that was requested.
// result III, I, II, IV, V

1 = Cn1cc(-c2cnc(NCc3c(F)ccc4c3CCO4)c3cn[nH]c(=O)c23)cn1
2 = O=C(Nc1cnc(NCc2c(F)ccc3c2CCO3)n2cnnc12)c1ccccc1
// query Sort 1 and 2 by microsomal CLint at 1 µM descending and give the first. State your choice using its label.
// result 1
(1: 21 µL/min/mg, 2: 10 µL/min/mg)

A = CNC(=O)c1ncc(-c2cnc(NCc3c(F)ccc4c3CCO4)c3cn[nH]c(=O)c23)n1C
B = O=C(Nc1ccccc1)c1cnc(NCc2c(F)ccc3c2CCO3)n2cnnc12
// query Which value of microsomal CLint at 1 µM is greater, the one for A or the one for B ? Let me know the label of the one you choose.
// result A

A = CNC(=O)c1ccc(-c2cnc(NCc3c(F)ccc4c3CCO4)c3cn[nH]c(=O)c23)c(C)n1
B = CC1(C)CC(=O)N(c2cnc(NCc3c(F)ccc4c3CCO4)n3cnnc23)C1
// query Which value of microsomal CLint at 1 µM is greater, the one for A or the one for B ? Provide the label of your selected option as the answer.
// result A

###

Assay: Lipophilicity, logD of the compound in Octanol/phosphate buffer at pH 7.4 after 30 mins by shake-flask method
Type: physicochemical
metric: logD at 0.5 h

Fc1ccc2c(c1CNc1ncc(Nc3ccccc3)c3nncn13)CCO2 3.3
Cc1ncccc1-c1cnc(NCc2c(F)ccc3c2CCO3)n2c(=O)[nH]nc12 3
Cc1nc(CN(C)C)ccc1-c1cnc(NCc2c(F)ccc3c2CCO3)c2cn[nH]c(=O)c12 2
Cc1ncccc1-c1cnc(NCc2c(F)ccc3c2CCO3)c2n[nH]c(=O)n12 2.5
Cc1nn(C)cc1-c1cnc(NCc2c(F)ccc3c2CCO3)c2cn[nH]c(=O)c12 2.8
